- EXPERIMENT SUMMARY: Drug repurposing screens with cells derived from glioblastoma tumor samples (AID 1345199); note: % is set by controls: 0 for no effect and ±100 for the full control effect
- TEST CONTEXT: GBM patient neurospheres viability, ATP luminescence, 48 h; at 45.9 µM (top of the series); tumour line D
Results filed as inconclusive are left out.
Please respond with reported activity, negative = cell killing for every item in the list.
Field: numeric (%). Do not append units.

Exercise: Bench note: what activity, negative = cell killing did CN1CCC[C@@H]1c1cccnc1 show?
Solution: -12.9

Exercise: // returns reported activity, negative = cell killing for input CN(C/C=C/c1ccccc1)Cc1cccc2ccccc12
Solution: -18.5

Exercise: Value lookup for activity, negative = cell killing; key = CC(C)COC(=O)c1ccc(N)cc1
Solution: -18.7

Exercise: Requested field: activity, negative = cell killing. Item: COc1cccc2c1C(=O)c1c(O)c3c(c(O)c1C2=O)C[C@@](O)(C(=O)CO)C[C@@H]3O[C@H]1C[C@H](N)[C@H](O)[C@H](C)O1
Solution: -1.75

Exercise: I have this compound here, CC(=O)Nc1c(I)cc(I)c(C(=O)O)c1I , and I need its recorded activity, negative = cell killing.
Solution: -1.85

Exercise: Please give the measured activity, negative = cell killing for this compound: O=C(COc1ccc(Cl)cc1)N1CCN(Cc2ccc3c(c2)OCO3)CC1
Solution: -28.6

Exercise: Any idea what its activity, negative = cell killing is? The compound is COC1=CC(=O)C[C@@H](C)[C@]12Oc1c(Cl)c(OC)cc(OC)c1C2=O
Solution: -7.65
